Target: CYP3A4 (Homo sapiens (Human))
Sequence (P08684 whole entry): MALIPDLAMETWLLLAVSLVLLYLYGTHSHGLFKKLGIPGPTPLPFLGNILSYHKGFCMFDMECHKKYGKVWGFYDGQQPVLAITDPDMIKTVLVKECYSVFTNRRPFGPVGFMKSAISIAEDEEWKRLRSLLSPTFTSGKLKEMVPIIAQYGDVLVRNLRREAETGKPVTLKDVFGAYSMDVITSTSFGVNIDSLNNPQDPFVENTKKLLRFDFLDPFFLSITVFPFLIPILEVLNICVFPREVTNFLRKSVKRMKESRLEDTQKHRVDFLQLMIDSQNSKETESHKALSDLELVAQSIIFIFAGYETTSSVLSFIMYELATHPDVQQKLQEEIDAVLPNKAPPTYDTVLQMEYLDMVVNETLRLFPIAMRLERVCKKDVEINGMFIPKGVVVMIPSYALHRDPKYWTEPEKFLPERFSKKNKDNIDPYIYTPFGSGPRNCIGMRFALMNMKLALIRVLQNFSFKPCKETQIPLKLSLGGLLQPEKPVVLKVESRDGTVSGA
Assay: Time dependent inhibition of CYP3A4 assay (TDI 3A4)
Type: in vitro ADME
Conditions: hydroxy-midazolam formation after 30 min relative to 0 min preincubation; 25 uM compound; human liver microsomes; midazolam substrate
Method: Time Dependent Inhibition of CYP3A4 Assay (TDI 3A4): After preincubation, the incubate is diluted 1:10 and the substrate midazolam is added for the main incubation (15 min). The main incubation is quenched with acetonitrile and the formation of hydroxy-midazolam is quantified via LC/MS-MS. The formation of hydroxy-midazolam from the 30 min preincubation relative to the formation from the 0 min preincubation is used as a readout. […]
measured parameter: TDI 3A4 [%] (%)
Give bare numbers, in %.

Reference set, count: 2
- compound: "Cc1nc(N[C@H](C)c2cccc(C(F)(F)F)c2F)c2cn(C3(C(F)F)CC3)c(=O)cc2n1"
  TDI 3A4 [%], %: 85
- compound: "Cc1c(=O)n(C2(C(F)F)CC2)cc2c(N[C@H](C)c3cccc(C(F)F)c3F)ncnc12"
  TDI 3A4 [%], %: 82

Report TDI 3A4 [%] for each item below.
1. Cc1nc(N[C@H](C)c2cccc(C(C)(F)F)c2F)c2cn(C3(CF)CC3)c(=O)c(F)c2n1
2. Cc1nc(N[C@H](C)c2cccc(C(F)F)c2F)c2cn(C3(C)CC3)c(=O)c(F)c2n1
3. Cc1c(=O)n(C23CC(C2)C3)cc2c(N[C@H](C)c3cccc(C(F)F)c3F)ncnc12
4. Cc1nc(N[C@H](C)c2cccc(C(C)(F)F)c2)c2cn(C3(C)CC3)c(=O)cc2n1
5. Cc1nc(N[C@H](C)c2cccc(C(C)(F)F)c2F)c2cn(C3(CF)CC3)c(=O)cc2n1
6. Cc1nc(N[C@H](C)c2cccc(C(F)(F)F)c2C)c2cn(C3CCOCC3)c(=O)cc2n1
7. Cc1nc(N[C@H](C)c2cccc3c2CCC3(F)F)c2cn(C3(C)CC3)c(=O)cc2n1

Found:
1. 81
2. 86
3. 84
4. 82
5. 84
6. 92
7. 87

Report TDI 3A4 [%] for each item below.
1. Cc1c(=O)n(C23CC(F)(C2)C3)cc2c(N[C@H](C)c3cccc(C(F)F)c3F)ncnc12
2. Cc1nc(N[C@H](C)c2cccc(C(F)(F)F)c2C)c2cn(C3(c4ccccc4)CCOCC3)c(=O)cc2n1
3. Cc1nc(N[C@H](C)c2cccc(C(F)F)c2C)c2cn(C3(C)CCOC3)c(=O)cc2n1 (some centres unmarked)
4. Cc1nc(N[C@H](C)c2cccc(C(F)F)c2F)c2cn(C3(CF)CC3)c(=O)c(F)c2n1
5. C[C@@H](Nc1ncnc2cc(=O)n(C3(C)CC3)cc12)c1cccc(C(F)(F)F)c1
6. Cc1nc(N[C@H](C)c2cccc(C(F)(F)F)c2C)c2cn(C3(C)CCOC3)c(=O)cc2n1 (some centres unmarked)

Found:
1: 82; 2: 97; 3: 87; 4: 85; 5: 86; 6: 88

Report TDI 3A4 [%] for each item below.
1. Cc1nc(N[C@H](C)c2cccc(C(F)F)c2C)c2cn(C3(C)CC3)c(=O)cc2n1
2. Cc1nc(N[C@H](C)c2cccc(C(C)(F)F)c2F)c2cn(C3(C(F)F)CC3)c(=O)cc2n1

Found:
1. 93
2. 84

Origin of values: patent US10829487B2
